Biological target: GST-Syk Full Protein (human) (Homo sapiens)
Assay: Syk kinase inhibition test (HTRF method)
Assay type: biochemical
Details: HTRF, 100 μM ATP, 30 min room temperature, average; read-out: sykHTRF ave IC50
Experimental: Syk Kinase Inhibition Test (HTRF Method) After the compounds were serially diluted with dimethylsulfoxide (DMSO), 10 μL of those 10-fold diluted with kinase buffer (20 mM HEPES pH 7.0, 10 mM MgCl2, 50 mM NaCl, 1 mM 2-ME, 0.05% BSA) was added to opti-plate HTRF-96 (Packard) (final DMSO concentration: 2%). […]
Below: a set of entries, each annotated with reported IC50.
Readout: IC50

- Smiles code: "Cc1ccnc(Nc2cccc(-c3cnc(CCCCCNC(=O)OC(C)(C)C)s3)n2)c1"
  System: "GST-Syk Full Protein (human) (Homo sapiens)"
  Readout: "IC50"
  Assay result: "> 1000 nM"
- Smiles code: "Cc1ccnc(Nc2cccc(-c3cnc([C@H]4CC[C@H](C(=O)N[C@@H](CO)Cc5cnc[nH]5)CC4)s3)n2)c1"
  System: "GST-Syk Full Protein (human) (Homo sapiens)"
  Readout: "IC50"
  Assay result: "< 100 nM"
- Smiles code: "CC(=O)N[C@@H](C)c1ncc(-c2cccc(Nc3cc(OCc4ccccc4)ccn3)n2)s1"
  System: "GST-Syk Full Protein (human) (Homo sapiens)"
  Readout: "IC50"
  Assay result: "100 to 1000 nM"
- Smiles code: "CC(=O)N1CCC[C@H]1c1ncc(-c2cccc(Nc3cc(C)ccn3)n2)s1"
  System: "GST-Syk Full Protein (human) (Homo sapiens)"
  Readout: "IC50"
  Assay result: "100 to 1000 nM"

====

Catalogue of pIC50 values
Target: GST-Syk Full Protein (human) (Homo sapiens, UniProt P43405)
Experiment: Syk kinase inhibition test (HTRF method)
Format: biochemical
Conditions: HTRF, 100 μM ATP, 30 min room temperature, average; read-out: sykHTRF ave IC50
pIC50: −log10 of the molar value.
Readout: pIC50

- Smiles code: "Cc1ccnc(Nc2cccc(-c3cnc([C@@H](N)CCC(=O)OCc4ccccc4)s3)n2)c1"
  Assay result: "6.00 to 7.00"
- Smiles code: "Cc1ccnc(Nc2cccc(-c3cnc(C4CCNCC4)s3)n2)c1"
  Assay result: "> 7.00"
- Smiles code: "CC(=O)N1CCN(C(=O)[C@H]2CC[C@H](c3ncc(-c4cccc(Nc5cc(C)ccn5)n4)s3)CC2)CC1"
  Assay result: "6.00 to 7.00"
- Smiles code: "Cc1ccnc(Nc2cccc(-c3cnc(C4CCN(CC(=O)O)CC4)s3)n2)c1"
  Assay result: "6.00 to 7.00"
- Smiles code: "Cc1ccnc(Nc2cccc(-c3cnc(CCCC(=O)O)s3)n2)c1"
  Assay result: "6.00 to 7.00"
- Smiles code: "CC(=O)N[C@@H](C)c1ncc(-c2cccc(Nc3cc(OCCN(C)C)ccn3)n2)s1"
  Assay result: "< 6.00"
- Smiles code: "Cc1ccnc(Nc2cccc(-c3cnc(C(=O)NCCO)s3)n2)c1"
  Assay result: "6.00 to 7.00"
- Smiles code: "C[C@H](N)c1ncc(-c2cccc(Nc3cc(-c4ccncc4)ccn3)n2)s1"
  Assay result: "> 7.00"

====

pIC50 listing for selected molecules.
System: cultured human mast cells
Test: Degranulation inhibition test using cultured human mast cells (IgE cross-linking, β-Hexosaminidase release)
Format: cell-based
Settings: Mast cell; cultured human mast cells, anti-hIgE stimulation, β-Hexosaminidase index, average; read-out: human degranulation ave. IC50
pIC50: −log10 of the molar value.

- Molecule: "Cc1ccnc(Nc2cccc(-c3sc([C@H](C)N)nc3C)n2)c1 [Compound A-104]"
  System: "cultured human mast cells"
  pIC50: "< 6.00"
- Molecule: "Cc1ccnc(Nc2cccc(-c3cnc(N4CCC(C(N)=O)CC4)s3)n2)c1 [Compound A-3]"
  System: "cultured human mast cells"
  pIC50: "6.00 to 7.00"
- Molecule: "Cc1ccnc(Nc2cccc(-c3cnc([C@H]4CC[C@H](C(=O)N5CCCC(O)C5)CC4)s3)n2)c1 (some centres unmarked) [Compound A-238]"
  System: "cultured human mast cells"
  pIC50: "6.00 to 7.00"
- Molecule: "Cc1ccnc(Nc2cccc(-c3cnc([C@H]4CC[C@H](C(=O)NC(C)(C)CO)CC4)s3)n2)c1 [Compound A-175]"
  System: "cultured human mast cells"
  pIC50: "6.00 to 7.00"
- Molecule: "Cc1ccnc(Nc2cccc(-c3cnc(CNC(=O)NCCO)s3)n2)c1 [Compound A-253]"
  System: "cultured human mast cells"
  pIC50: "6.00 to 7.00"
- Molecule: "Cc1ccnc(Nc2cccc(-c3cnc([C@H](C)N(C)C(=O)OC(C)(C)C)s3)n2)c1 [Compound A-50]"
  System: "cultured human mast cells"
  pIC50: "< 6.00"
- Molecule: "Cc1ccnc(Nc2cccc(-c3cnc(CC(C)(C)N)s3)n2)c1 [Compound A-333]"
  System: "cultured human mast cells"
  pIC50: "6.00 to 7.00"
- Molecule: "CC(=O)N[C@@H](COCc1ccccc1)c1ncc(-c2cccc(Nc3cc(C)ccn3)n2)s1 [Compound A-45]"
  System: "cultured human mast cells"
  pIC50: "< 6.00"
- Molecule: "CC(=O)N[C@@H](C)c1ncc(-c2cccc(Nc3cc(OCCN(C)C)ccn3)n2)s1 [Compound A-166]"
  System: "cultured human mast cells"
  pIC50: "< 6.00"
- Molecule: "CNC(=O)COCc1ncc(-c2cccc(Nc3cc(C)ccn3)n2)s1 [Compound A-367]"
  System: "cultured human mast cells"
  pIC50: "6.00 to 7.00"
- Molecule: "Cc1ccnc(Nc2cccc(-c3cnc(CCCCC(=O)NS(C)(=O)=O)s3)n2)c1 [Compound A-171]"
  System: "cultured human mast cells"
  pIC50: "< 6.00"
- Molecule: "COc1ccc(NCc2ncc(-c3cccc(Nc4cc(C)ccn4)n3)s2)cc1 [Compound A-214]"
  System: "cultured human mast cells"
  pIC50: "< 6.00"
- Molecule: "CC(=O)N[C@@H](C)c1nc(C(N)=O)c(-c2cccc(Nc3cc(C)ccn3)n2)s1 [Compound A-117]"
  System: "cultured human mast cells"
  pIC50: "< 6.00"
- Molecule: "Cc1ccnc(Nc2cccc(-c3cnc([C@H]4CC[C@H](CO)CC4)s3)n2)c1 [Compound A-211]"
  System: "cultured human mast cells"
  pIC50: "6.00 to 7.00"
- Molecule: "CCOC(=O)CCC(=O)N[C@@H](C)c1ncc(-c2cccc(Nc3cc(C)ccn3)n2)s1 [Compound A-120]"
  System: "cultured human mast cells"
  pIC50: "< 6.00"
- Molecule: "CCOC(=O)Cc1ccnc(Nc2cccc(-c3cnc([C@@H]4CCC(=O)N4)s3)n2)c1 [Compound A-332]"
  System: "cultured human mast cells"
  pIC50: "6.00 to 7.00"
- Molecule: "CCOC(=O)c1nc([C@H](C)N)sc1-c1cccc(Nc2cc(C)ccn2)n1 [Compound A-101]"
  System: "cultured human mast cells"
  pIC50: "< 6.00"

====

Target: GST-Syk Full Protein (human) (Homo sapiens)
Assay: Syk kinase inhibition test (HTRF method)
Type: biochemical
Settings: Tables 1-x, compounds A; read-out: sykHTRF ave IC50
pIC50: −log10 of the molar value. Where a name gives a salt, the structure may show the parent alone.

- Compound: "Cc1ccnc(Nc2cccc(-c3cnc(CN4C(=O)CC(C)(C)CC4=O)s3)n2)c1"
  pIC50: "6.00 to 7.00"
- Compound: "Cc1ccnc(Nc2cccc(-c3cnc(N(C)CC(=O)N(C)CC(=O)O)s3)n2)c1 [Compound A-580, dihydrochloride]"
  pIC50: "> 7.00"
- Compound: "Cc1ccnc(Nc2cccc(-c3cnc(N(C)C4CCN(C(=O)NC5CCCCC5)CC4)s3)n2)c1"
  pIC50: "6.00 to 7.00"
- Compound: "Cc1ccnc(Nc2cccc(-c3cnc(NCCCCC(=O)O)s3)n2)c1"
  pIC50: "> 7.00"
- Compound: "CNC(=O)C1(C)CCN(c2ncc(-c3cccc(Nc4cc(C)ccn4)n3)s2)CC1"
  pIC50: "> 7.00"
- Compound: "Cc1ccnc(Nc2cccc(-c3cnc(CN4CCc5c(cccc5C(=O)O)C4)s3)n2)c1"
  pIC50: "6.00 to 7.00"
- Compound: "CNC(=O)CO[C@@H]1CCN(c2ncc(-c3cccc(Nc4cc(C)ccn4)n3)s2)C1"
  pIC50: "> 7.00"
- Compound: "CO[C@@H]1CCN(c2ncc(-c3cccc(Nc4cc(C)ccn4)n3)s2)C1"
  pIC50: "> 7.00"

====

Molecular target: GST-Syk Full Protein (human) (Homo sapiens, UniProt P43405)
Test: Syk kinase inhibition test (HTRF method)
Assay type: biochemical
Details: Tables 1-x, compounds A; read-out: sykHTRF ave IC50
Description: Syk Kinase Inhibition Test (HTRF Method) After the compounds were serially diluted with dimethylsulfoxide (DMSO), 10 μL of those 10-fold diluted with kinase buffer (20 mM HEPES pH 7.0, 10 mM MgCl2, 50 mM NaCl, 1 mM 2-ME, 0.05% BSA) was added to opti-plate HTRF-96 (Packard) (final DMSO concentration: 2%). […]
Listed here: items and their measured IC50.

- Compound: "Cc1ccnc(Nc2cccc(-c3cnc(COCC(=O)N4CC(=O)NC(=O)C4)s3)n2)c1 [Compound A-393]"
  System: "GST-Syk Full Protein (human) (Homo sapiens, UniProt P43405)"
  IC50: "100 to 1000 nM"
- Compound: "Cc1ccnc(Nc2cccc(-c3cnc(N(C)[C@H]4CN[C@H](C(=O)O)C4)s3)n2)c1 [Compound A-579]"
  System: "GST-Syk Full Protein (human) (Homo sapiens, UniProt P43405)"
  IC50: "< 100 nM"
- Compound: "Cc1ccnc(Nc2cccc(-c3cnc(N4CCC(C(=O)N(C)C)CC4)s3)n2)c1 [Compound A-434]"
  System: "GST-Syk Full Protein (human) (Homo sapiens, UniProt P43405)"
  IC50: "100 to 1000 nM"
- Compound: "CN(CCO)c1ncc(-c2cccc(Nc3ccccn3)n2)s1 [Compound A-706]"
  System: "GST-Syk Full Protein (human) (Homo sapiens, UniProt P43405)"
  IC50: "100 to 1000 nM"
